Test system: HeLa Kyoto
Protocol Details: thermal stability score vs G1/S (z-score of summed log2 fold changes over temperatures); higher = more thermally stable than in G1/S
Run Parameters: cell cycle stage: early G1 (4.5 h after nocodazole release)
Quantity: thermal stability score
// no unit, no text: just the number

State, in one line, measured thermal stability score of MSLHGKRKEIYKYEAPWTVYAMNWSVRPDKRFRLALGSFVEEYNNKVQLVGLDEESSEFICRNTFDHPYPTTKLMWIPDTKGVYPDLLATSGDYLRVWRVGETETRLECLLNNNKNSDFCAPLTSFDWNEVDPYLLGTSSIDTTCTIWGLETGQVLGRVNLVSGHVKTQLIAHDKEVYDIAFSRAGGGRDMFASVGADGSVRMFDLRHLEHSTIIYEDPQHHPLLRLCWNKQDPNYLATMAMDGMEVVILDVRVPCTPVARLNNHRACVNGIAWAPHSSCHICTAADDHQALIWDIQQMPRAIEDPILAYTAEGEINNVQWASTQPDWIAICYNNCLEILRV [DCAF7] 0.282

----------
sequences and their reported melting temperature
Tested on: HeLa Kyoto
Protocol Details: melting temperature (median over replicates), in situ; higher = more thermally stable
Run Parameters: cell cycle stage: G1/S

Macromolecule Sequence	melting temperature
MAAQCVRLARRSLPALALSLRPSPRLLCTATKQKNSGQNLEEDMGQSEQKADPPATEKTLLEEKVKLEEQLKETVEKYKRALADTENLRQRSQKLVEEAKLYGIQAFCKDLLEVADVLEKATQCVPKEEIKDDNPHLKNLYEGLVMTEVQIQKVFTKHGLLKLNPVGAKFDPYEHEALFHTPVEGKEPGTVALVSKVGYKLHGRTLRPALVGVVKEA [GRPEL1]	51.2 °C

State, in one line, measured melting temperature of MVPGAAGWCCLVLWLPACVAAHGFRIHDYLYFQVLSPGDIRYIFTATPAKDFGGIFHTRYEQIHLVPAEPPEACGELSNGFFIQDQIALVERGGCSFLSKTRVVQEHGGRAVIISDNAVDNDSFYVEMIQDSTQRTADIPALFLLGRDGYMIRRSLEQHGLPWAIISIPVNVTSIPTFELLQPPWTFW [PRADC1] 53.8 °C

----------
System: HeLa Kyoto
Protocol Details: solubility in G1/S (NP-40 vs SDS abundance) (log2 ratio); higher = more soluble
Run Parameters: cell cycle stage: G1/S
Quantity: solubility in G1/S (log2)
// no unit, no text: just the number

Macromolecule Sequence	Assay Result
MEDEMPKTLYVGNLSRDVTEALILQLFSQIGPCKNCKMIMDTAGNDPYCFVEFHEHRHAAAALAAMNGRKIMGKEVKVNWATTPSSQKKDTSSSTVVSTQRSQDHFHVFVGDLSPEITTEDIKAAFAPFGRISDARVVKDMATGKSKGYGFVSFFNKWDAENAIQQMGGQWLGGRQIRTNWATRKPPAPKSTYESNTKQLSYDEVVNQSSPSNCTVYCGGVTSGLTEQLMRQTFSPFGQIMEIRVFPDKGYSFVRFNSHESAAHAIVSVNGTTIEGHVVKCYWGKETLDMINPVQQQNQIGYPQPYGQWGQWYGNAQQIGQYMPNGWQVPAYGMYGQAWNQQGFNQTQSSAPWMGPNYGVQPPQGQNGSMLPNQPSGYRVAGYETQ [TIA1]	0.0405
MFFWCACCLMVAWRVSASDAEHCPELPPVDNSIFVAKEVEGQILGTYVCIKGYHLVGKKTLFCNASKEWDNTTTECRLGHCPDPVLVNGEFSSSGPVNVSDKITFMCNDHYILKGSNRSQCLEDHTWAPPFPICKSRDCDPPGNPVHGYFEGNNFTLGSTISYYCEDRYYLVGVQEQQCVDGEWSSALPVCKLIQEAPKPECEKALLAFQESKNLCEAMENFMQQLKESGMTMEELKYSLELKKAELKAKLL [C4BPB]	0.187
MADTTPNGPQGAGAVQFMMTNKLDTAMWLSRLFTVYCSALFVLPLLGLHEAASFYQRALLANALTSALRLHQRLPHFQLSRAFLAQALLEDSCHYLLYSLIFVNSYPVTMSIFPVLLFSLLHAATYTKKVLDARGSNSLPLLRSVLDKLSANQQNILKFIACNEIFLMPATVFMLFSGQGSLLQPFIYYRFLTLRYSSRRNPYCRTLFNELRIVVEHIIMKPACPLFVRRLCLQSIAFISRLAPTVP [TMEM33]	0.0522
MRLPRRAALGLLPLLLLLPPAPEAAKKPTPCHRCRGLVDKFNQGMVDTAKKNFGGGNTAWEEKTLSKYESSEIRLLEILEGLCESSDFECNQMLEAQEEHLEAWWLQLKSEYPDLFEWFCVKTLKVCCSPGTYGPDCLACQGGSQRPCSGNGHCSGDGSRQGDGSCRCHMGYQGPLCTDCMDGYFSSLRNETHSICTACDESCKTCSGLTNRDCGECEVGWVLDEGACVDVDECAAEPPPCSAAQFCKNANGSYTCEECDSSCVGCTGEGPGNCKECISGYAREHGQCADVDECSLAEKTCVRKNENCYNTPGSYVCVCPDGFEETEDACVPPAEAEATEGESPTQLPSREDL [CRELD2]	0.092

// below: solubility in G1/S (log2) requested for another sequence
State, in one line, measured solubility in G1/S (log2) of MRESALERGPVPEAPAGGPVHAVTVVTLLEKLASMLETLRERQGGLARRQGGLAGSVRRIQSGLGALSRSHDTTSNTLAQLLAKAERVSSHANAAQERAVRRAAQVQRLEANHGLLVARGKLHVLLFKEEGEVPASAFQKAPEPLGPADQSELGPEQLEAEVGESSDEEPVESRAQRLRRTGLQKVQSLRRALSGRKGPAAPPPTPVKPPRLGPGRSAEAQPEAQPALEPTLEPEPPQDTEEDPGRPGAAEEALLQMESVA [PRKCDBP] 0.305
